# Assay Target: T1, PCI-Flag (human, UniProt P05154 26-406, limits assumed)
# T1 construct: Full-length human PCI ORF with a C-terminal Flag tag, secreted by CHO cells and purified from the culture supernatant; also called Flag-tagged PCI
# T1 chain: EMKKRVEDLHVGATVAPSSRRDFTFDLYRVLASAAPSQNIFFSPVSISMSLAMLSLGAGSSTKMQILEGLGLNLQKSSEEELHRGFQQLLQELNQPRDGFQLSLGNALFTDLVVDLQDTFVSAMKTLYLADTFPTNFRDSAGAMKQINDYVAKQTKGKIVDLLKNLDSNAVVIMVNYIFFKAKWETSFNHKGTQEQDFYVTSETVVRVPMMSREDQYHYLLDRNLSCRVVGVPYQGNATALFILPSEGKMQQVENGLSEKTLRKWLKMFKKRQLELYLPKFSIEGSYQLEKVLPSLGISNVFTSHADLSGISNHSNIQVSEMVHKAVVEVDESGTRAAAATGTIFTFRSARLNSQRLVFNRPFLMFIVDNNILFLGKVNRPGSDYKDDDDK
# Assay: SPR (BIACORE 2000), PCI-Flag amine-coupled to CM5 chip, antibody injected
Measurement Name: log10(koff) (log10 of the value in s⁻¹)

Binder	log10(koff)
PC19G8 (antibody, IgG1, V domains shown, also called clone #19G8; anti-PCI neutralizing antibody) VH: EVQLQQSGAELVKPGASVKLSCTASGFDIKDTFMHWVKQRPEQGLEWIGRIDYVNGNTKYDPKFQGKATITGDTSSNTAYLQLSSLTSEDTAVYYCARGGYDVREFAYWGQGTLVTVSA VL: QIVLTQSPAIMSASPGEKVTITCSATSSLIYMHWFQQKPGSSPELWIYSTSNLASGVPARFSGSGSGTSYSLTISRMEAEDAATYYCQQRSSYPFTFGSGTKLEIK	-4.67
PC23A7 (antibody, IgG2a, V domains shown, Mouse hybridoma monoclonal, IgG2a, purified on Protein G; also called anti-PCI neutralizing antibody) VH: EVQLQQSGAELVKPGASVKLSCTASGFDIRDTFMHWVKQRPEQGLEWIGRIDLVNVNTKYDPNFQDRATITADTSSNTAYLQLTSLTSEDTAVYYCARGGYDVREFAYWGQGTLVTVSA VL: QIVLTQSPAIMSASPGEKVTITCSATSSLIYMHWFQQKPGTSPKLWIYSTSNLASGVPARFSGSGSGTSYSLTISRMEAEDAATYYCQQRSSYPFTFGSGTKLEIK	-4.14
PC31E2 (antibody, V domains shown, also called anti-PCI neutralizing antibody) VH: QVQLQQSGAELVKPGASVKMSCKAFGYTFTTYPIEWMKQNHGKSLEWIGKFHPDNDDTNYNEKFKGKAKLTVEKSSSTVYLELSRLTSDDSAVYYCARGHDYDYGMDYWGQGTSVTVSS VL: DIVLTQSPASLAVSLGQRATISCKASQSVDYDGDSYLNWYQQKPGQPPKLLIYGASNLESGTPARFSGSGSGTDFTLDIHPVEEEDAATYYCQQSNEDPPTFGGGTKLEIT	-3.50
PC23D8 (antibody, IgG2a, V domains shown, also called anti-PCI neutralizing antibody) VH: EVQLQQSGAELVKPGASVKLSCTASGFDIKDTFMHWVKQRPEQGLEWIGRIDYVNGNTKYDPKFQGKATITGDTSSNTAYLQLSSLTSEDTAVYYCARGGYDVREFAYWGQGTLVTVSA VL: QIVLTQSPAIMSASPGEKVTITCSATSSLIYMHWFQQKPGSSPELWIYSTSNLASGVPARFSGSGSGTSYSLTISRMEAEDAATYYCQQRSSYPFTFGSGTKLEIK	-4.18
PC39C6 (antibody, IgG1, V domains shown, Mouse hybridoma monoclonal, IgG1, purified on Protein G; also called anti-PCI neutralizing antibody) VH: EVQLQQSGAELVRPGALVKLSCKASGFNIKDYYIHWVKQRPEQGLEWIGRIDLEKGNIIYDPKFQGKDNITADTSSNTAYLQLSSLTSEDTAVYYCARGGYDVPSFAYWGQGTLVTVSA VL: QIVLTQSPAIMSASPGEKVTITCSASSSVSYMHWFQQKPGTSPKLWIYSTSNLASGVPARFSGSGSGTSYSLTISRMEAEDAATYYCQQRSSYPFTFGSGTKLEIK	-3.31

These data points were gathered from patent US20090035320A1.
